# Tested on: Enterobacter aerogenes EB6
# protocol.details: MIC by standard agar dilution test
# Format: cell-based
# protocol.conditions: Klebsiella aerogenes, EB6, read-out: Minimum Inhibitory Concentration
assay.readout: MIC (µg/mL)
Report the figure in µg/mL without appending any unit label.

structure.string: CN[C@@H]1[C@@H](O[C@H]2O[C@H](C)[C@@H](N)[C@H](O)[C@H]2O)O[C@H]2C[C@@H](N)[C@@H](O[C@H]3[C@H](O)[C@@H](O)[C@H](N)C[C@@H]3N)O[C@@H]2[C@@H]1O
assay.readout: MIC
unit.tag: µg/mL
assay.result: 4

Request: MIC lookup needed for `CN[C@@H]1[C@@H](O[C@H]2O[C@H](COS(C)(=O)=O)[C@@H](N)[C@H](O)[C@H]2O)O[C@H]2C[C@@H](N)[C@@H](O[C@H]3[C@H](O)[C@@H](O)[C@H](N)C[C@@H]3N)O[C@@H]2[C@@H]1O` , thanks.
Response: 4

Request: MIC lookup needed for `CN[C@@H]1[C@@H](O[C@H]2O[C@H](CCl)[C@@H](N)[C@H](O)[C@H]2O)O[C@H]2C[C@@H](N)[C@@H](O[C@H]3[C@H](O)[C@@H](O)[C@H](N)C[C@@H]3N)O[C@@H]2[C@@H]1O` , thanks.
Response: 4

Request: MIC lookup needed for `CN[C@@H]1[C@@H](O[C@H]2O[C@H](CN)[C@@H](N)[C@H](O)[C@H]2O)O[C@H]2C[C@@H](N)[C@@H](O[C@H]3[C@H](O)[C@@H](O)[C@H](N)C[C@@H]3N)O[C@@H]2[C@@H]1O` , thanks.
Response: 16

Request: MIC lookup needed for `CN[C@@H]1[C@@H](O[C@H]2O[C@H](CO[Si](C)(C)C(C)(C)C)[C@@H](N)[C@H](O)[C@H]2O)O[C@H]2C[C@@H](N)[C@@H](O[C@H]3[C@H](O)[C@@H](O)[C@H](N)C[C@@H]3N)O[C@@H]2[C@@H]1O` , thanks.
Response: 32
